test system: P. aeruginosa GN_043, PmxR; conditions: P. aeruginosa GN_043, PmxR
Starred links: 1 amine or outer side, 2 acyl side, 3 side chain; linkers in the order of their positions; H or OH if unused. Positions of bridges follow the written chain, without caps; N, C: chain ends. Non-standard residues stand in square brackets, D forms with d. Residues, ends and D or L forms follow the SMILES beside them. *: point of attachment. Decanoyl(3R-OH) = CCCCCCC[C@@H](O)CC(=O)*; d3Pal = N[C@H](Cc1cccnc1)C(=O)O; NH(2-ClPh) = Clc1ccccc1N*; dDab = NCC[C@@H](N)C(=O)O; dDap = NC[C@@H](N)C(=O)O; Dab = NCC[C@H](N)C(=O)O; CO = O=C([*:1])[*:2]
PARAMETER: MIC P. aeruginosa GN_043, PmxR

Quote MIC P. aeruginosa GN_043, PmxR with test system P. aeruginosa GN_043, PmxR for CCCCCCC[C@@H](O)CC(=O)N[C@H](Cc1cccnc1)C(=O)N[C@H]1CCNC(=O)[C@H]([C@@H](C)O)NC(=O)[C@H](CCN)NC(=O)[C@H](CCN)NC(=O)[C@H](CC(C)C)NC(=O)[C@@H](Cc2ccccc2)NC(=O)[C@H](CCN)NC1=O [compound 6398] ({Decanoyl(3R-OH)}-[d3Pal][Dab][Dab][dF]L[Dab][Dab]T; lactam 2-C)
>32 µg/mL

Provide MIC P. aeruginosa GN_043, PmxR, recorded with P. aeruginosa GN_043, PmxR, of CCCCCCC[C@@H](O)CC(=O)N[C@@H](CCN)C(=O)N[C@@H]1CCNC(=O)[C@H](CC(C)C)NC(=O)[C@H](CCN)NC(=O)[C@H](CCN)NC(=O)[C@H](CC(C)C)NC(=O)[C@@H](Cc2ccccc2)NC(=O)[C@H](CCN)NC1=O [compound 6658] ({Decanoyl(3R-OH)}-[Dab][dDab][Dab][dF]L[Dab][Dab]L; lactam 2-C)
>32 µg/mL

# return MIC P. aeruginosa GN_043, PmxR of CC(C)C[C@@H]1NC(=O)[C@H](CCN)NC(=O)[C@H](CCN)NC(=O)[C@H](CC(C)C)NC(=O)[C@@H](Cc2ccccc2)NC(=O)[C@H](CCN)NC(=O)[C@@H](NC(=O)[C@@H](CN)NC(=O)Nc2ccccc2Cl)CCNC1=O [compound 9188] ({NH(2-ClPh)-CO}-[dDap][Dab][Dab][dF]L[Dab][Dab]L; lactam 2-C) (system: P. aeruginosa GN_043, PmxR)
>16 µg/mL
